Tested on: 945468-187-T-J3-PDC spheroids with HUVEC/MSC, viability;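 further: spheroids exposed to agents for 7 days before viability read; 100% = DMSO vehicle control viability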
Assay: Anticancer human tumor 945468-187-T-J3-PDC patient-derived rectal carcinoma cell line growth inhibition [PI3K]
Details: second compound 0.0316 µM; first compound 10 µM; active compounds read low
quantity name: viability, T/C (%)
Give your result in % as a bare value.

Below are worked cases with known answers.
{"compound": "CCCS(=O)(=O)Nc1ccc(F)c(C(=O)c2c[nH]c3ncc(-c4ccc(Cl)cc4)cc23)c1F + CC(Nc1ccc2c(c1)OCCn1cc(N3C(=O)OCC3C(F)F)nc1-2)C(N)=O", "viability, T/C / %": 22.2}
{"compound": "CC(Cn1ccc(-c2ccc(C#N)c(Cl)c2)n1)NC(=O)c1cc(C(C)O)[nH]n1 (stereo not given) + COc1c(OCCCN2CCOCC2)ccc2c3n(c(=NC(=O)c4cnc(N)nc4)nc12)CCN3", "viability, T/C / %": 88.2}
{"compound": "CC(Cn1ccc(-c2ccc(C#N)c(Cl)c2)n1)NC(=O)c1cc(C(C)O)[nH]n1 (stereo not given) + CC(Nc1ccc2c(c1)OCCn1cc(N3C(=O)OCC3C(F)F)nc1-2)C(N)=O", "viability, T/C / %": 107}
{"compound": "CC(Cn1ccc(-c2ccc(C#N)c(Cl)c2)n1)NC(=O)c1cc(C(C)O)[nH]n1 (stereo not given) + CC(Nc1ncnc2nc[nH]c12)c1cc2cccc(Cl)c2c(=O)n1-c1ccccc1", "viability, T/C / %": 94}
{"compound": "C=CC(=O)N1CCN(c2nc(=O)n(-c3c(C)ccnc3C(C)C)c3nc(-c4c(O)cccc4F)c(F)cc23)C(C)C1 (stereo not given) + Cc1nc(NC(=O)N2CCCC2C(N)=O)sc1-c1ccnc(C(C)(C)C(F)(F)F)c1", "viability, T/C / %": 114}

In: I would be grateful if you could share the reported viability, T/C for CC1(C)CCC(CN2CCN(c3ccc(C(=O)NS(=O)(=O)c4ccc(NCC5CCOCC5)c([N+](=O)[O-])c4)c(Oc4cnc5[nH]ccc5c4)c3)CC2)=C(c2ccc(Cl)cc2)C1 + CC(Nc1ncnc2nc[nH]c12)c1cc2cccc(Cl)c2c(=O)n1-c1ccccc1 .
Out: 114

In: // repeat for CCCS(=O)(=O)Nc1ccc(F)c(C(=O)c2c[nH]c3ncc(-c4ccc(Cl)cc4)cc23)c1F + COc1c(OCCCN2CCOCC2)ccc2c3n(c(=NC(=O)c4cnc(N)nc4)nc12)CCN3 and report
Out: 36.7

In: // repeat for Cn1ncc(Cl)c1-c1cc(C(=O)NC(CN)Cc2cccc(F)c2)sc1Cl (stereo not given) + Cc1nc(NC(=O)N2CCCC2C(N)=O)sc1-c1ccnc(C(C)(C)C(F)(F)F)c1 and report
Out: 35.1

In: // repeat for CC(C)NCC(C(=O)N1CCN(c2ncnc3c2C(C)CC3O)CC1)c1ccc(Cl)cc1 (stereo not given) + CC(Nc1ncnc2nc[nH]c12)c1cc2cccc(Cl)c2c(=O)n1-c1ccccc1 and report
Out: 38.4

In: // repeat for C[C@@H](NC(=O)c1ncnc(N)c1Cl)c1ncc(C(=O)Nc2cc(C(F)(F)F)c(Cl)cn2)s1 + CC(Nc1ccc2c(c1)OCCn1cc(N3C(=O)OCC3C(F)F)nc1-2)C(N)=O and report
Out: 94.3

In: // repeat for Cn1nccc1Nc1nccc(-c2ccn(C(CO)c3ccc(Cl)c(F)c3)c(=O)c2)n1 (stereo not given) + Cc1nc(NC(=O)N2CCCC2C(N)=O)sc1-c1ccnc(C(C)(C)C(F)(F)F)c1 and report
Out: 133

In: // repeat for Cn1ncc(Cl)c1-c1cc(C(=O)NC(CN)Cc2cccc(F)c2)sc1Cl (stereo not given) + COc1c(OCCCN2CCOCC2)ccc2c3n(c(=NC(=O)c4cnc(N)nc4)nc12)CCN3 and report
Out: 12.9

In: // repeat for CC1(C)CCC(Nc2ncc(C(F)(F)F)c(-c3c[nH]c4c(P(C)(C)=O)c(C#N)ccc34)n2)CN1 (stereo not given) + Cc1nc(NC(=O)N2CCCC2C(N)=O)sc1-c1ccnc(C(C)(C)C(F)(F)F)c1 and report
Out: 15.4

In: // repeat for CC1(C)CCC(CN2CCN(c3ccc(C(=O)NS(=O)(=O)c4ccc(NCC5CCOCC5)c([N+](=O)[O-])c4)c(Oc4cnc5[nH]ccc5c4)c3)CC2)=C(c2ccc(Cl)cc2)C1 + Cc1nc(NC(=O)N2CCCC2C(N)=O)sc1-c1ccnc(C(C)(C)C(F)(F)F)c1 and report
Out: 20.8

In: // repeat for CC(Cn1ccc(-c2ccc(C#N)c(Cl)c2)n1)NC(=O)c1cc(C(C)O)[nH]n1 (stereo not given) + Cc1nc(NC(=O)N2CCCC2C(N)=O)sc1-c1ccnc(C(C)(C)C(F)(F)F)c1 and report
Out: 92.7

In: // repeat for CC1(C)CCC(CN2CCN(c3ccc(C(=O)NS(=O)(=O)c4ccc(NCC5CCOCC5)c([N+](=O)[O-])c4)c(Oc4cnc5[nH]ccc5c4)c3)CC2)=C(c2ccc(Cl)cc2)C1 + COc1c(OCCCN2CCOCC2)ccc2c3n(c(=NC(=O)c4cnc(N)nc4)nc12)CCN3 and report
Out: 13.7

In: // repeat for C#Cc1c(F)ccc2cc(O)cc(-c3ncc4c(N5CC6CCC(C5)N6)nc(OCC56CCCN5CC(F)C6)nc4c3F)c12 (stereo not given) + CC(Nc1ccc2c(c1)OCCn1cc(N3C(=O)OCC3C(F)F)nc1-2)C(N)=O and report
Out: 105

In: // repeat for CC1(C)CCC(Nc2ncc(C(F)(F)F)c(-c3c[nH]c4c(P(C)(C)=O)c(C#N)ccc34)n2)CN1 (stereo not given) + COc1c(OCCCN2CCOCC2)ccc2c3n(c(=NC(=O)c4cnc(N)nc4)nc12)CCN3 and report
Out: 5.62

In: // repeat for C#Cc1c(F)ccc2cc(O)cc(-c3ncc4c(N5CC6CCC(C5)N6)nc(OCC56CCCN5CC(F)C6)nc4c3F)c12 (stereo not given) + CC(Nc1ncnc2nc[nH]c12)c1cc2cccc(Cl)c2c(=O)n1-c1ccccc1 and report
Out: 101

In: // repeat for C#Cc1c(F)ccc2cc(O)cc(-c3ncc4c(N5CC6CCC(C5)N6)nc(OCC56CCCN5CC(F)C6)nc4c3F)c12 (stereo not given) + COc1c(OCCCN2CCOCC2)ccc2c3n(c(=NC(=O)c4cnc(N)nc4)nc12)CCN3 and report
Out: 57.6
